From: patent US20200216532A1

# TEST_SYSTEM: T1, purified interference factor(s), Donor A
# T1 construct: also called interference in serum from Donor A
# EXPERIMENT_SUMMARY: SPR, interference factor immobilized
The following binders are shown together with reported % of binding of reference (=100%) values.
Provide only the numeric value, understood in %.

// known answers, use as guide
{"columns": ["BINDER", "% of binding of reference (=100%)"],
 "data": [
  ["SEQ ID NO: 76 (VHH, Ex. 8) VHH: EVQLVESGGGLVQPGGSLRLSCAASRSIGRLDRMGWYRHRPGEPRELVATITGGSSINYGDSVKGRFTISIDNSKNTVYLQMNSLRPEDTAVYYCNFNKYVTSRDTWGQGTLVTVSS", 2],
  ["SEQ ID NO: 77 (VHH, Ex. 8) VHH: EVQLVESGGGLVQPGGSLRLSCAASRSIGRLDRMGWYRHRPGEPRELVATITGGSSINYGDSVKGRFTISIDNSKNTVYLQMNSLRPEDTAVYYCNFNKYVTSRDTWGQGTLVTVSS", 2],
  ["SEQ ID NO: 47 (VHH, Ex. 8) VHH: EVQLVESGGGLVQPGGSLRLSCAASGSVFKINVMAWYRQAPGKGRELVAGIISGGSTSYADSVKGRFTISRDNAKNTLYLQMNSLRPEDTAVYYCAFITTESDYDLGRRYWGQGTLVTVSS", 1],
  ["SEQ ID NO: 66 (VHH, Ex. 8) VHH: EVQLVESGGGSVQPGGSLRLSCAASRSIGRLDRMGWYRHRPGEPRELVATITGGSSINYGDSVKGRFTISIDNSKNTVYLQMNSLRPEDTAVYYCNFNKYVTSRDTWGQGTLVTVSS", 81],
  ["SEQ ID NO: 86 (VHH, Ex. 8) VHH: EVQLVESGGGSVQPGGSLRLSCAASRSIGRLDRMGWYRHRPGEPRELVATITGGSSINYGDSVKGRFTISIDNSKNTVYLQMNSLRPEDTAVYYCNFNKYVTSRDTWGQGTLVQVSS", 76],
  ["SEQ ID NO: 82 (VHH, Ex. 8) VHH: EVQLVESGGGLVQPGGSLRLSCAASRSIGRLDRMGWYRHRPGEPRELVATITGGSSINYGDSVKGRFTISIDNSKNTVYLQMNSLRAEDTAVYYCNFNKYVTSRDTWGQGTLVTVSS", 96]
]}

The reported value for SEQ ID NO: 85 (VHH, Ex. 8) VHH: EVQLVESGGGSVQPGGSLRLSCAASRSIGRLDRMGWYRHRPGEPRELVATITGGSSINYGDSVKGRFTISIDNSKNTVYLQMNSLRPEDTAVYYCNFNKYVTSRDTWGQGTLVQVGG in terms of % of binding of reference (=100%) is 46
